target: DNA topoisomerase 2 (Plasmodium falciparum K1); test: Minimum inhibitory concentration required to completely inhibit topoisomerase II activity from Plasmodium falciparum was determined using P4 DNA […] assay
# MIC values compiled below
Give your result in µM as a bare value.

Known MIC results, listed for orientation:
CN(C)c1ccc(Nc2c3ccc(N)cc3nc3cc(N)ccc23)cc1	12.5
Nc1ccc(Nc2c3ccc(N)cc3nc3cc(N)ccc23)cc1	10
CN(C)Cc1ccc(Nc2c3ccc(N)cc3nc3cc(N)ccc23)cc1	50
CS(=O)(=O)Nc1ccc(Nc2c3ccc(N)cc3nc3cc(N)ccc23)cc1	6
[N-]=[N+]=Nc1ccc2c(Nc3ccc(C(N)=O)cc3)c3ccc(N=[N+]=[N-])cc3nc2c1	50

Prompt: Consider the compound "COc1ccc(Nc2c3ccc(N)cc3nc3cc(N)ccc23)cc1" and give its measured MIC.
Response: 6

Prompt: Consider the compound "CNS(=O)(=O)c1ccc(Nc2c3ccc(N)cc3nc3cc(N)ccc23)cc1" and give its measured MIC.
Response: 25

Prompt: Consider the compound "Nc1ccc2c(=Nc3ccc(S(N)(=O)=O)cc3)c3ccc(N)cc3[nH]c2c1" and give its measured MIC.
Response: 6

Prompt: Consider the compound "Nc1ccc2c(Nc3ccc(O)cc3)c3ccc(N)cc3nc2c1" and give its measured MIC.
Response: 6

Prompt: Consider the compound "NS(=O)(=O)c1ccc(Nc2c3ccc(Cl)cc3nc3cc(Cl)ccc23)cc1" and give its measured MIC.
Response: 100

Prompt: Consider the compound "NC(=O)c1ccc(Nc2c3ccc(N)cc3nc3cc(N)ccc23)cc1" and give its measured MIC.
Response: 6

* * *

assay: In vitro therapeutic index value is the ratio between IC50 values of [J] and [P]; assay type: cell-based; conditions: human, Jurkat cells; read-out: TI
selectivity ratio vs 30: less than gives 1 (yes); not less than gives 0 (no).

Prompt: Say whether its selectivity ratio is strictly beneath 30. Entry: "Nc1ccc2c(Nc3ccc(S(=O)(=O)N4CCCCC4)cc3)c3ccc(N)cc3nc2c1"
Response: 1 (yes)

* * *

assay: In vitro therapeutic index value is the ratio between IC50 values of [J] and [P]; assay type: cell-based; settings: human, Jurkat cells; read-out: TI
# selectivity ratio values compiled below

Known selectivity ratio results, listed for orientation:
COc1cc(Nc2c3ccccc3nc3ccccc23)ccc1NS(C)(=O)=O	0.4
[N-]=[N+]=Nc1ccc2c(Nc3ccc(S(N)(=O)=O)cc3)c3ccc(N=[N+]=[N-])cc3nc2c1	83
CN(C)S(=O)(=O)c1ccc(Nc2c3ccc(N)cc3nc3cc(N)ccc23)cc1	31

Prompt: Consider the molecule "COc1ccc2nc3cc(Cl)ccc3c(Nc3cc(CN4CCCC4)c(O)c(CN4CCCC4)c3)c2n1" and give its measured selectivity ratio.
Response: 1480

Prompt: Consider the molecule "CN(C)c1ccc(Nc2c3ccccc3nc3cc(N)ccc23)cc1" and give its measured selectivity ratio.
Response: < 3.5

Prompt: Consider the molecule "CN(C)Cc1ccc(Nc2c3ccc(Cl)cc3nc3cc(Cl)ccc23)cc1" and give its measured selectivity ratio.
Response: 20

Prompt: Consider the molecule "COc1ccc2c(Nc3ccc(S(N)(=O)=O)cc3)c3ccc(OC)cc3nc2c1" and give its measured selectivity ratio.
Response: < 3.2

Prompt: Consider the molecule "COc1cc(NS(C)(=O)=O)ccc1Nc1c2ccccc2nc2cc(N)ccc12" and give its measured selectivity ratio.
Response: < 5

Prompt: Consider the molecule "CS(=O)(=O)Nc1ccc(Nc2c3ccccc3nc3ccccc23)cc1" and give its measured selectivity ratio.
Response: < 0.3

Prompt: Consider the molecule "CN(C)c1ccc(Nc2c3ccccc3nc3ccccc23)cc1" and give its measured selectivity ratio.
Response: < 2

Prompt: Consider the molecule "COc1cc(N=c2c3ccccc3[nH]c3cc(N)ccc23)ccc1NS(C)(=O)=O" and give its measured selectivity ratio.
Response: < 0.4
